For each of the compounds below, state its pIC50.
- System under test: human TRPV4 (hTRPV4/CHO cells) (Homo sapiens, UniProt Q9HBA0)
- Construct: expressed in transfected cells; host or cells: CHO-K1
- Sequence (Q9HBA0 whole entry): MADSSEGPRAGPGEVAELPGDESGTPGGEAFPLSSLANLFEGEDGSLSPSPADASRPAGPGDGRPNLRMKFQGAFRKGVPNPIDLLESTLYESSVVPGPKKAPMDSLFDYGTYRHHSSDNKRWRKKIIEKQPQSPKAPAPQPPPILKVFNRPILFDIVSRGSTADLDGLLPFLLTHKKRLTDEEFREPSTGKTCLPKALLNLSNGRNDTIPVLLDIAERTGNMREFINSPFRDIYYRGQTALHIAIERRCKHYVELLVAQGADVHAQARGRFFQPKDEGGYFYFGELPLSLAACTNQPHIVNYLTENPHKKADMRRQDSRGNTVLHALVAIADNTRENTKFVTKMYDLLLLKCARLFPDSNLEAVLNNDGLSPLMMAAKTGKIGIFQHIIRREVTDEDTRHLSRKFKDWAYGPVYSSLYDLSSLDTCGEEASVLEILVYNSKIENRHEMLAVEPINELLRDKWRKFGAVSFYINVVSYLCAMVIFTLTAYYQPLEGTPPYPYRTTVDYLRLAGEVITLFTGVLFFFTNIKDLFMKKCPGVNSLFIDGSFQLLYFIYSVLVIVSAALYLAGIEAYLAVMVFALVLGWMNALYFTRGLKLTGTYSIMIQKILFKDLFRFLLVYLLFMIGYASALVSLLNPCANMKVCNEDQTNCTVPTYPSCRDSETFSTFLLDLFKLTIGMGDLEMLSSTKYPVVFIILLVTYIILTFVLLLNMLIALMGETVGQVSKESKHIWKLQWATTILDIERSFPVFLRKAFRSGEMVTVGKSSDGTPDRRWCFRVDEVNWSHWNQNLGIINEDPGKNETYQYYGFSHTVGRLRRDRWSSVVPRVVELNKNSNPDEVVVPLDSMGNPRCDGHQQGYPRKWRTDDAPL
- Assay explanation: Test Example 1: TRPV4 inhibitory activity (IC50 value), 4α-PDD stimulation, Fluo4 calcium fluorescence (FLIPR TETRA)
- Type: cell-based
- Condition description: Test Example 1, 4α-PDD stimulation, read-out: Test 1 IC50
pIC50: −log10 of the molar value.

Suppose we examine the compound O=C(Cc1ccc(S(=O)(=O)C(F)(F)F)cc1)Nc1nc(-c2sc(CO)nc2CCCO)cs1 [Compound I-360] ; what pIC50 value has been reported?
> 7.00

Suppose we examine the compound Cc1nc(CO)sc1-c1csc(NC(=O)C2C[C@H](C(F)(F)F)CN2C(=O)C(F)(F)F)n1 (stereo partly drawn) [Compound I-464] ; what pIC50 value has been reported?
5.10 to 6.00

Suppose we examine the compound Cc1nc(CO)sc1-c1csc(NC(=O)Cn2cnc(C(F)(F)F)c2)n1 [Compound I-406] ; what pIC50 value has been reported?
5.10 to 6.00

Suppose we examine the compound CC(C)OC(=O)N1C[C@H](c2ccccc2)C[C@H]1C(=O)Nc1nc(-c2sc(CO)nc2CO)cs1 [Compound I-344] ; what pIC50 value has been reported?
6.00 to 7.00

Suppose we examine the compound O=C(Cc1ccc(S(=O)(=O)C(F)(F)F)cc1)Nc1nc(-c2sc(CO)nc2CNC(=O)C2(C(F)(F)F)CC2)cs1 [Compound I-439] ; what pIC50 value has been reported?
> 7.00

Suppose we examine the compound Cc1nc(C)c(-c2csc(NC(=O)C3Cc4ccccc4N3C)n2)s1 (stereo not drawn) [Compound I-175] ; what pIC50 value has been reported?
6.00 to 7.00

Suppose we examine the compound Cc1nc(C)c(-c2csc(NC(=O)C3(C)CCN(c4ccc(C(F)(F)F)cc4)CC3)n2)s1 (racemic) [Compound I-512] ; what pIC50 value has been reported?
> 7.00

Suppose we examine the compound Cc1nc(C)c(-c2nc(NC(=O)Cc3c(F)cccc3F)sc2-c2ccncc2)s1 [Compound I-60] ; what pIC50 value has been reported?
5.10 to 6.00

Suppose we examine the compound NC(=O)OCCc1nc(CO)sc1-c1csc(NC(=O)Cc2ccc(S(=O)(=O)C(F)(F)F)cc2)n1 [Compound I-370] ; what pIC50 value has been reported?
> 7.00

Suppose we examine the compound O=C(Nc1nc(-c2sc(CO)nc2CO)cs1)C1CC(c2ccccc2)C1 (stereo not drawn) [Compound I-546] ; what pIC50 value has been reported?
6.00 to 7.00

Suppose we examine the compound Cc1nc(C)c(-c2csc(NC(=O)[C@H]3CC[C@@H](C(=O)N[C@H](c4ccccc4)C(F)(F)F)CC3)n2)s1 [Compound I-495] ; what pIC50 value has been reported?
6.00 to 7.00

Suppose we examine the compound Cc1nc(C)c(-c2csc(NC(Cc3ccc(Cl)cc3)C(=O)NCc3ccccc3)n2)s1 (racemic) [II-43] ; what pIC50 value has been reported?
5.10 to 6.00

Suppose we examine the compound CC(=O)NC(C)c1nc(CO)sc1-c1csc(NC(=O)Cc2ccc(S(=O)(=O)C(F)(F)F)cc2)n1 (single isomer, unassigned) [Compound I-482] ; what pIC50 value has been reported?
6.00 to 7.00

Suppose we examine the compound Cc1nc(C)c(-c2csc(NC(=O)Cn3cc(-c4ccc(Cl)cc4)cn3)n2)s1 [Compound I-147] ; what pIC50 value has been reported?
> 7.00

Suppose we examine the compound Cc1nc(CO)sc1-c1csc(NC(=O)/C=C/c2ccc(Cl)cc2)n1 [Compound I-466] ; what pIC50 value has been reported?
6.00 to 7.00

----------
For each of the molecules below, state its pIC50.
- System under test: human TRPV4 (hTRPV4/CHO cells) (Homo sapiens, UniProt Q9HBA0)
- Construct: expressed in transfected cells; host or cells: CHO-K1
- Assay explanation: Test Example 1: TRPV4 inhibitory activity (IC50 value), 4α-PDD stimulation, Fluo4 calcium fluorescence (FLIPR TETRA)
- Type: cell-based
- Condition description: Test Example 1, 4α-PDD stimulation, read-out: Test 1 IC50
pIC50: −log10 of the molar value.

Suppose we examine the molecule `Cc1nc(C)c(-c2csc(NC(=O)Cc3cc(OCC(F)(F)F)cc(C(=O)N[C@H](c4ccccc4)C(F)(F)F)c3)n2)s1` ; what pIC50 value has been reported?
> 7.00

Suppose we examine the molecule `Cc1nc(COC(N)=O)sc1-c1csc(NC(=O)Cc2ccc(S(=O)(=O)C(F)(F)F)cc2)n1` ; what pIC50 value has been reported?
6.00 to 7.00

Suppose we examine the molecule Cc1nc(C)c(-c2csc(NC(=O)Cc3ccc(C(F)(F)F)cn3)n2)s1 [Compound I-118] ; what pIC50 value has been reported?
6.00 to 7.00

----------
- System under test: CYP2C9 (Homo sapiens)
- Sequence (P11712 whole entry): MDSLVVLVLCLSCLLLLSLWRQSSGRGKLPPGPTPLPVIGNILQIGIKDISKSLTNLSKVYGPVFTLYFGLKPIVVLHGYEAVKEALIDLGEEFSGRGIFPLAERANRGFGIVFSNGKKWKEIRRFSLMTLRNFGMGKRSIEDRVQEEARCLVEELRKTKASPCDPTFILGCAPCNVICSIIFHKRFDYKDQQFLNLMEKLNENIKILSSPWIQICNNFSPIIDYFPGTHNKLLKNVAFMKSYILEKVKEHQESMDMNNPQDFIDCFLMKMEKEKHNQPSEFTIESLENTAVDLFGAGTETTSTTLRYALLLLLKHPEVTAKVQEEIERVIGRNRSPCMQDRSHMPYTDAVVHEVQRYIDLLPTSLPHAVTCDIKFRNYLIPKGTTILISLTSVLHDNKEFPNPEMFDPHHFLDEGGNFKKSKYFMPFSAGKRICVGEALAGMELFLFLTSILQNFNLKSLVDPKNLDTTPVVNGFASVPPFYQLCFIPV
pIC50: −log10 of the molar value.
Readout label: pIC50

Suppose we examine the molecule `Cc1nc(C(=O)NO)sc1-c1csc(NC(=O)Cc2c(F)cccc2F)n1` ; what pIC50 value has been reported?
< 4.70

----------
- System under test: human TRPV4 (hTRPV4/CHO cells) (Homo sapiens, UniProt Q9HBA0)
- Construct: expressed in transfected cells; host or cells: CHO-K1
- Assay explanation: Test Example 1: TRPV4 inhibitory activity (IC50 value), 4α-PDD stimulation, Fluo4 calcium fluorescence (FLIPR TETRA)
- Type: cell-based
- Condition description: Test Example 1, 4α-PDD stimulation, read-out: Test 1 IC50
pIC50: −log10 of the molar value.
Readout label: pIC50

Suppose we examine the compound Cc1nc(C)c(-c2csc(NC(=O)CC3CC(F)(F)C3(F)F)n2)s1 (centres unmarked) ; what pIC50 value has been reported?
6.00 to 7.00

Suppose we examine the compound `Cc1nc(C)c(-c2csc(NC(=O)Cc3cc(F)cc(C#N)c3)n2)s1` ; what pIC50 value has been reported?
> 7.00

Suppose we examine the compound O=C(Nc1nc(-c2cccs2)cs1)C1CC(F)C1 (centres unmarked) ; what pIC50 value has been reported?
5.10 to 6.00

Suppose we examine the compound `COC(=O)NCc1nc(C)c(-c2csc(NC(=O)Cc3ccc(S(=O)(=O)C(F)(F)F)cc3)n2)s1` ; what pIC50 value has been reported?
6.00 to 7.00

Suppose we examine the compound `NCc1nc(CO)sc1-c1csc(NC(=O)C2CN(c3ccc(C(F)(F)F)cc3)C2)n1` ; what pIC50 value has been reported?
6.00 to 7.00

Suppose we examine the compound `Cc1nc(C(C)(C)O)c(-c2csc(NC(=O)Cc3c(F)cccc3F)n2)s1` ; what pIC50 value has been reported?
6.00 to 7.00

Suppose we examine the compound `Cc1nc(C)c(-c2csc(NC(=O)[C@@H]3CC[C@H](c4ccccc4)N3)n2)s1` ; what pIC50 value has been reported?
6.00 to 7.00

Suppose we examine the compound `CN(Cc1nc(CO)sc1-c1csc(NC(=O)Cc2ccc(S(=O)(=O)C(F)(F)F)cc2)n1)C(N)=O` ; what pIC50 value has been reported?
6.00 to 7.00

----------
- System under test: human TRPV4 (hTRPV4/CHO cells) (Homo sapiens, UniProt Q9HBA0)
- Construct: expressed in transfected cells; host or cells: CHO-K1
- Assay explanation: Test Example 2: TRPV4 inhibitory activity (IC50 value), 4α-PDD stimulation, Fluo3 calcium fluorescence (FLIPR)
- Assay type: cell-based
- Condition description: 600 nmol/L 4α-PDD, Fluo3-AM, read-out: TRPV4 inhibitory activity (IC50 value)
Readout label: pIC50
Lab note: report pIC50 as minus log10 of the concentration in molar units, number only.

Please tell me: pIC50 of `Cc1nc(C)c(-c2csc(Nc3ccccn3)n2)s1` , system human TRPV4 (hTRPV4/CHO cells) (Homo sapiens, UniProt Q9HBA0)?
7.14

----------
- System under test: human TRPV4 (hTRPV4/CHO cells) (Homo sapiens, UniProt Q9HBA0)
- Construct: expressed in transfected cells; host or cells: CHO-K1
- Assay explanation: Test Example 1: TRPV4 inhibitory activity (IC50 value), 4α-PDD stimulation, Fluo4 calcium fluorescence (FLIPR TETRA)
- Format: cell-based
- Condition description: Test Example 1, 4α-PDD stimulation, read-out: Test 1 IC50
Readout label: IC50

Suppose we examine the molecule `Cc1nc(C(F)F)sc1-c1csc(NC(=O)Cn2cc(Cl)cn2)n1` ; what IC50 value has been reported?
100 to 1000 nM

Suppose we examine the molecule Cc1nc(C(C)O)oc1-c1csc(NC(=O)Cn2cc(C(F)(F)F)cn2)n1 (racemic) ; what IC50 value has been reported?
1000 to 8000 nM

Suppose we examine the molecule `O=C(Cc1ccc(S(=O)(=O)C(F)(F)F)cc1)Nc1nc(-c2sc(CO)nc2CC(=O)N2CCOCC2)cs1` ; what IC50 value has been reported?
1000 to 8000 nM

Suppose we examine the molecule `Cc1nc(C)c(-c2csc(NC(=O)[C@@H]3C[C@@H](c4ccccc4)CN3C)n2)s1` ; what IC50 value has been reported?
1000 to 8000 nM

Suppose we examine the molecule `Cc1nc(CO)sc1-c1csc(NC(=O)[C@H]2C[C@@H](F)C2)n1` ; what IC50 value has been reported?
1000 to 8000 nM

Suppose we examine the molecule `Cc1nc(C(N)=O)sc1-c1csc(NC(=O)Cn2cc(Cl)cn2)n1` ; what IC50 value has been reported?
100 to 1000 nM

Suppose we examine the molecule `CC(=O)NCc1nc(C)sc1-c1csc(NC(=O)Cc2ccc(S(=O)(=O)C(F)(F)F)cc2)n1` ; what IC50 value has been reported?
< 100 nM

Suppose we examine the molecule `Cc1nc(C)c(-c2csc(NCC(F)(F)c3ccccc3)n2)s1` ; what IC50 value has been reported?
1000 to 8000 nM
